Procedure Text: 28-day toxicity study in rats
Experimental Conditions: female, rat, in vivo, females, at 50 mg, read-out: Cmax at NOAEL

Molecule: Brc1cccc(-c2cc(-c3ccc4c(c3)OCO4)n[nH]2)c1 [anle138b]
Cmax: 2680 ng/mL

---

Procedure Text: Single ascending dose (SAD) oral pharmacokinetics of anle138b in healthy subjects, plasma
Assay type: in vivo, human
Experimental Conditions: human, plasma; SAD Cohort C 200 mg single oral dose, fasted; geometric mean (CV%); read-out: AUC(0-24)
Protocol: This was a single-centre, double-blind, randomised, placebo-controlled single ascending dose (SAD) and multiple ascending dose (MAD) study of anle138b in doses of up to 300 mg per day in healthy subjects. […] The study was exploratory and no formal sample size calculation was made. […] Populations and analysis sets were determined for safety and PK data after database lock using the criteria defined in the reporting and analysis plan. […]
Property Name: AUC(0-t) (ng·h/mL)

Molecule: Brc1cccc(-c2cc(-c3ccc4c(c3)OCO4)n[nH]2)c1 [anle138b]
Property Name: AUC(0-t)
Value Measured: 1090

---

Procedure Text: Multiple ascending dose (MAD, QD 7 days) oral pharmacokinetics of anle138b in healthy subjects, plasma
Format: in vivo, human
Experimental Conditions: human, plasma, oral, 100 mg, MAD Cohort A 100 mg QD, dosing day 1, fasted; geometric mean (CV%)
Property Name: Cmax (ng/mL)

Compound: Brc1cccc(-c2cc(-c3ccc4c(c3)OCO4)n[nH]2)c1 [anle138b]
Units Text: ng/mL
Value Measured: 135

---

Procedure Text: 28-day cynomolgus monkey toxicity study
Experimental Conditions: male, in vivo, males, 125 mg/kg/day, read-out: Cmax at NOAEL

Molecule: Brc1cccc(-c2cc(-c3ccc4c(c3)OCO4)n[nH]2)c1 [anle138b]
Cmax [ng/mL]: 3170

---

Procedure Text: Multiple ascending dose (MAD, QD 7 days) oral pharmacokinetics of anle138b in healthy subjects, plasma
Format: in vivo, human
Experimental Conditions: human, plasma, oral, 200 mg, MAD Cohort B 200 mg QD, dosing day 7, fasted; geometric mean (CV%); read-out: AUC(0-24)
Property Name: AUC(0-t) (ng·h/mL)

Compound: Brc1cccc(-c2cc(-c3ccc4c(c3)OCO4)n[nH]2)c1 [anle138b]
Value Measured: 308

---

Procedure Text: Multiple ascending dose (MAD, QD 7 days) oral pharmacokinetics of anle138b in healthy subjects, plasma
Assay type: in vivo, human
Experimental Conditions: human, plasma, oral, 300 mg, MAD Cohort C 300 mg QD, dosing day 1, fasted; geometric mean (CV%); read-out: AUC(0-24)
Property Name: AUC(0-t) (ng·h/mL)

Compound: Brc1cccc(-c2cc(-c3ccc4c(c3)OCO4)n[nH]2)c1 [anle138b]
Property Name: AUC(0-t)
Value Measured: 2210

---

Procedure Text: 28-day toxicity study in rats
Experimental Conditions: male, rat, in vivo, males, at 50 mg, read-out: Cmax at NOAEL

Compound: Brc1cccc(-c2cc(-c3ccc4c(c3)OCO4)n[nH]2)c1 [anle138b]
Units Text: ng/mL
Cmax: 2460

---

Procedure Text: Food effect study (FES), 150 mg single dose fed vs fasted, pharmacokinetics in healthy subjects, plasma
Type: in vivo, human
Experimental Conditions: human, plasma, po, 150 mg, FES 150 mg single oral dose, fasted; geometric mean (CV%)

Molecule: Brc1cccc(-c2cc(-c3ccc4c(c3)OCO4)n[nH]2)c1 [anle138b]
Units Text: ng/mL
Cmax: 442

---

Procedure Text: Food effect study (FES), 150 mg single dose fed vs fasted, pharmacokinetics in healthy subjects, plasma
Type: in vivo, human
Experimental Conditions: human, plasma, po, 150 mg, FES 150 mg single oral dose, fed (high-fat breakfast); geometric mean (CV%); read-out: AUC(0-24)
Property Name: AUC(0-t) (ng·h/mL)

Compound: Brc1cccc(-c2cc(-c3ccc4c(c3)OCO4)n[nH]2)c1 [anle138b]
Property Name: AUC(0-t)
Value Measured: 641

---

Procedure Text: Multiple ascending dose (MAD, QD 7 days) oral pharmacokinetics of anle138b in healthy subjects, plasma
Format: in vivo, human
Experimental Conditions: human, plasma, oral, 200 mg, MAD Cohort B 200 mg QD, dosing day 1, fasted; geometric mean (CV%); read-out: AUC(0-24)
Property Name: AUC(0-t) (ng·h/mL)

Compound: Brc1cccc(-c2cc(-c3ccc4c(c3)OCO4)n[nH]2)c1 [anle138b]
Property Name: AUC(0-t)
Units Text: ng·h/mL
Value Measured: 905

---

Procedure Text: Single ascending dose (SAD) oral pharmacokinetics of anle138b in healthy subjects, plasma
Assay type: in vivo, human
Experimental Conditions: human, plasma; SAD Cohort B 100 mg single oral dose, fasted; geometric mean (CV%)
Property Name: Cmax

Molecule: Brc1cccc(-c2cc(-c3ccc4c(c3)OCO4)n[nH]2)c1 [anle138b]
Value Measured: 156 ng/mL

---

Procedure Text: Single ascending dose (SAD) oral pharmacokinetics of anle138b in healthy subjects, plasma
Assay type: in vivo, human
Experimental Conditions: human, plasma; SAD Cohort A 50 mg single oral dose, fasted; geometric mean (CV%); read-out: AUC(0-24)

Compound: Brc1cccc(-c2cc(-c3ccc4c(c3)OCO4)n[nH]2)c1 [anle138b]
AUC(0-t) / ng·h/mL: 113

---

Procedure Text: Multiple ascending dose (MAD, QD 7 days) oral pharmacokinetics of anle138b in healthy subjects, plasma
Type: in vivo, human
Experimental Conditions: human, plasma, oral, 100 mg, MAD Cohort A 100 mg QD, dosing day 7, fasted; geometric mean (CV%); read-out: AUC(0-24)

Compound: Brc1cccc(-c2cc(-c3ccc4c(c3)OCO4)n[nH]2)c1 [anle138b]
AUC(0-t) / µg·h/mL: 0.141

---

Procedure Text: Multiple ascending dose (MAD, QD 7 days) oral pharmacokinetics of anle138b in healthy subjects, plasma
Type: in vivo, human
Experimental Conditions: human, plasma, oral, 300 mg, MAD Cohort C 300 mg QD, dosing day 1, fasted; geometric mean (CV%)

Compound: Brc1cccc(-c2cc(-c3ccc4c(c3)OCO4)n[nH]2)c1 [anle138b]
Units Text: ng/mL
Cmax: 910

---

Procedure Text: Blood levels of anle138b after chronic dosing (14 days) in food pellets
Assay type: in vivo
Parameters: dose or concentration left out as unconfirmed
Experimental Conditions: mouse, oral, doses of ≥11·, read-out: AUC0-24 exposure

Compound: Brc1cccc(-c2cc(-c3ccc4c(c3)OCO4)n[nH]2)c1 [anle138b]
AUC(0-t): ≥ 300 ng·h/mL

---

Procedure Text: Oral pharmacokinetics, overall statements across SAD, MAD and FES parts
Format: in vivo, human
Experimental Conditions: human, plasma, oral; authors' conclusion from SAD data; read-out: true T½ of anle138b in human plasma

Molecule: Brc1cccc(-c2cc(-c3ccc4c(c3)OCO4)n[nH]2)c1 [anle138b]
half-life: ≥ 10 h

---

Procedure Text: 28-day toxicity study in rats
Experimental Conditions: rat, in vivo, 28-day toxicity study, read-out: no-observed-adverse-effect-level (NOAEL)
Property Name: NOAEL at 28 days (mg/kg/day)

Molecule: Brc1cccc(-c2cc(-c3ccc4c(c3)OCO4)n[nH]2)c1 [anle138b]
Property Name: NOAEL at 28 days
Value Measured: 50

---

Procedure Text: Multiple ascending dose (MAD, QD 7 days) oral pharmacokinetics of anle138b in healthy subjects, plasma
Format: in vivo, human
Experimental Conditions: human, plasma, oral, 100 mg, MAD Cohort A 100 mg QD, dosing day 1, fasted; geometric mean (CV%); read-out: AUC(0-24)
Property Name: AUC(0-t) (ng·h/mL)

Compound: Brc1cccc(-c2cc(-c3ccc4c(c3)OCO4)n[nH]2)c1 [anle138b]
Value Measured: 261

---

Procedure Text: Multiple ascending dose (MAD, QD 7 days) oral pharmacokinetics of anle138b in healthy subjects, plasma
Assay type: in vivo, human
Experimental Conditions: human, plasma, oral; MAD Cohort B 200 mg QD, dosing day 7, fasted; geometric mean (CV%), N=5
Property Name: half-life

Compound: Brc1cccc(-c2cc(-c3ccc4c(c3)OCO4)n[nH]2)c1 [anle138b]
Value Measured: ~10 h

---

Procedure Text: Single ascending dose (SAD) oral pharmacokinetics of anle138b in healthy subjects, plasma
Type: in vivo, human
Experimental Conditions: human, plasma; SAD Cohort D 300 mg single oral dose, fasted; geometric mean (CV%)
Procedure: This was a single-centre, double-blind, randomised, placebo-controlled single ascending dose (SAD) and multiple ascending dose (MAD) study of anle138b in doses of up to 300 mg per day in healthy subjects. […] The study was exploratory and no formal sample size calculation was made. […] Populations and analysis sets were determined for safety and PK data after database lock using the criteria defined in the reporting and analysis plan. […]
Property Name: Cmax

Molecule: Brc1cccc(-c2cc(-c3ccc4c(c3)OCO4)n[nH]2)c1 [anle138b]
Value Measured: 704 ng/mL

---

Procedure Text: 28-day cynomolgus monkey toxicity study
Experimental Conditions: female, in vivo, females, 125 mg/kg/day, read-out: Cmax at NOAEL

Compound: Brc1cccc(-c2cc(-c3ccc4c(c3)OCO4)n[nH]2)c1 [anle138b]
Units Text: ng/mL
Cmax: 2720
